experimental-system: T1, monkey SEMA4D, full length, on CHO-K1 cells (CHO-K1 cSEMA4D) (monkey)
T1 construct: whole, on cells; also called monkey SEMA4D recombinant cells
experimental-details: FACS, CHO-K1 cSEMA4D cells; Ab 0.534 nM
property-measured: MFI

**Q:** Note MFI for the binder shown: 38H2E3 (antibody, V domains shown, Mouse monoclonal antibody purified from hybridoma supernatant on protein A) VH: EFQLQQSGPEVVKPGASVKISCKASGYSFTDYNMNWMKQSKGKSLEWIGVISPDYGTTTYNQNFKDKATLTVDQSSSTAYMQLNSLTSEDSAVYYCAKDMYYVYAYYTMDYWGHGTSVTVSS VL: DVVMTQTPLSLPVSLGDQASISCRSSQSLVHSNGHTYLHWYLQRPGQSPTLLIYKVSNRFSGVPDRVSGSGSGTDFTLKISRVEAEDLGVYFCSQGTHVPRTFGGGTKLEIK
**A:** 601
